Each entry below carries its reported expected percent binding.
Target: T1, HCV Core1-169 (hepatitis C virus (HCV-1), UniProt P26664 1-169)
T1 sequence: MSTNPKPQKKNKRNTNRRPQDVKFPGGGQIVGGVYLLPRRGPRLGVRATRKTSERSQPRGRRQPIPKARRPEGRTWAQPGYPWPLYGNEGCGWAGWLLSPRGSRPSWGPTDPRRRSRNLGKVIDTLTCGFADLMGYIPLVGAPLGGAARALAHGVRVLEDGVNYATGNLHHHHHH
Test: SPR sandwich, capture mAb C11-14
Just the number in %, nothing appended.

{"BINDER": "HCV 208B-589 (antibody, V domains shown) VH: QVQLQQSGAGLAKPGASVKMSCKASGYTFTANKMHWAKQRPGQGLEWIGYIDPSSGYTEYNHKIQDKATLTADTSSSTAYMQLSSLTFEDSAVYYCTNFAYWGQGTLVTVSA VL: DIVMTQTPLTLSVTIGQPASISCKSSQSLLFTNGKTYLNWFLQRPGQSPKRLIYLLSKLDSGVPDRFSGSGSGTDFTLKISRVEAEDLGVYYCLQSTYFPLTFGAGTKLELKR", "UNITS_OF_MEASURE": "%", "expected percent binding": 9.9}

Consider the additional binder presented here.
What does the record list as expected percent binding for HCV 208B-1024 (antibody, V domains shown) VH: EVQLVESGGDLVKPGGSLKLSCAASGFTFSNYGMSWVRQTPDKRLEWVATISSGGSYSYYPDSVKGRFTISRDNAKNILYLQMSSLKSEDTAMYYCASLYYGYGDYWGQGTAFTVSS VL: DVLMTQTPLSLPVSLGDQASISCRSSQSIVHSNGNTYLEWYLQKLGQSPKLLIYRVSNRFSGVPDRFSGSGSGTDFTLKISRVEAEDLGVYYCFQGSHVPWTFGGGTKLEIKR ?
12.2
